test system: CCRF-CEM leukemia; assay: NCI tumour cell line growth inhibition, 48 h; in the data active means GI50 below about 0.43 µM; inactive means the rest
Labels: yes (1) = active, no (0) = inactive

{"columns": ["Compound", "Label"],
 "data": [
  ["CNc1cc2nc3cc(NC)c(C)cc3cc2cc1C", "no (0)"],
  ["Cc1cccc2nc3cccc(C(=O)NCCNCCNCCNC(=O)c4cccc5nc6cccc(C)c6nc45)c3nc12", "yes (1)"],
  ["COC(=O)C[CH2][Ge]([CH3])([CH3])[S]c1ccccc1", "no (0)"],
  ["CN(C)CCC=C1c2ccccc2C(C)(C)c2ccccc21", "no (0)"],
  ["Nc1nc2c(nnn2C2OC(CO)C(O)C2O)c(=O)[nH]1 (stereo unspecified)", "no (0)"],
  ["CO[C@]12C=C/C(=C(/C(=O)OCc3cccnc3)C(=O)CCCCCCCC[C@@]3(OC)C=C/C(=C(/C(=O)OCc4cccnc4)C(=O)CCCCCCCC1)O3)O2", "no (0)"],
  ["COc1ccc(-c2nc(Nc3ccc(-c4nc5ccccc5[nH]4)cc3)nc(N3CCOCC3)n2)cc1", "no (0)"],
  ["O=C1C(Nc2ccc(Br)cc2)=C(I)C(=O)c2ncccc21", "no (0)"],
  ["O=c1c2c(c3ccccc3n1-c1ccccc1)NC(=S)NC2c1ccc(Cl)cc1 (stereo unspecified)", "no (0)"],
  ["CCCCCCCCCCCCCCCC(=O)N[C@H](/C=C/[C@H](O)CCCCCCCCCCCCC)CO", "no (0)"],
  ["C=C1CC[C@@H]2[C@](C)(COC(C)=O)[C@H](OC(C)=O)CC[C@@]2(C)[C@@H]1CC(Nc1ccc(S(=O)(=O)Nc2cc(C)on2)cc1)C1=CCOC1=O (stereo partly specified)", "no (0)"]
]}
